These measurements were taken from patent US20150086555A1.

Target: recombinant soluble homotrimeric HA of A/Japan/305/57 (H2N2) (Influenza A virus A/Japan/305/1957(H2N2))
Test: trimeric HA microarray, transfection supernatant set 4
Settings: remark: other sources report otherwise
# label = satisfied if Trimeric HA Binding: RLU >= 10000 RLU else not satisfied

Study these solved cases before continuing.
TCN-504 (3251_K17) (antibody, V domains shown) VH: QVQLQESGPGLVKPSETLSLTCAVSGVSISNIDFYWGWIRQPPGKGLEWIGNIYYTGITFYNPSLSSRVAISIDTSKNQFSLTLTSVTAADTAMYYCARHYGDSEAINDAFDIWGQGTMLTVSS VL: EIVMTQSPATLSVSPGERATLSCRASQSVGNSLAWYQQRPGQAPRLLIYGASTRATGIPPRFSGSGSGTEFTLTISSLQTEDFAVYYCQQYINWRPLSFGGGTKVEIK
satisfied
TCN-536 (5095_N01) (antibody, V domains shown) VH: QVQLQQWGAGLLKPSETLSLTCAVYGGSFSVSGYYWSWIRQPPGRGLEWIGEISHGGSTNYNPSLKSRVTISVDTTKNQFSLRLSSVTAADTAVYYCARGTDPDTEVYCRVGNCAAFDYWGQGSLVTVSS VL: EIILAQSPGTLSLSPGERATLSCRASQFVSTRSLAWYQQRPGQAPRLLIYGASSRATGIPDRFSGSGSGTDFTLTISRLEPEDFAVYYCQHYGYSPRYAFGQGSKVEIK
not satisfied
TCN-523 (5248_A17) (antibody, V domains shown) VH: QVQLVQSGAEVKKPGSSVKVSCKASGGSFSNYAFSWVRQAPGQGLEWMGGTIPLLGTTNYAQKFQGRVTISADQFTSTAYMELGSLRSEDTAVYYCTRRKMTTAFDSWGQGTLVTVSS VL: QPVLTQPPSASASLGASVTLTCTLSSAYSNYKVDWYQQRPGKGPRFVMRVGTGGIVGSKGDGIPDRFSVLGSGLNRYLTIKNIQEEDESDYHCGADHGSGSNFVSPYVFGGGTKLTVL
not satisfied
TCN-534 (5249_B02) (antibody, V domains shown) VH: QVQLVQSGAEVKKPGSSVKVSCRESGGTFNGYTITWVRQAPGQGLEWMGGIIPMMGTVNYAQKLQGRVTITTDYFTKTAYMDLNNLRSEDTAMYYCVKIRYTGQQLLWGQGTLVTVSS VL: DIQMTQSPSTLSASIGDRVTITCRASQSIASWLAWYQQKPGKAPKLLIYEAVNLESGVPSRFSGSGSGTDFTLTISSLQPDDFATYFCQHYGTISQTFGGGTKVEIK
satisfied

Turning now to a further binder:
Q: Test whether the binder TCN-535 (5246_P19) (antibody, V domains shown) VH: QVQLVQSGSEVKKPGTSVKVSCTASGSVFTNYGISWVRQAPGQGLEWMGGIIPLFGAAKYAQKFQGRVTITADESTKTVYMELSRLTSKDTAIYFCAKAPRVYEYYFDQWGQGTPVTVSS VL: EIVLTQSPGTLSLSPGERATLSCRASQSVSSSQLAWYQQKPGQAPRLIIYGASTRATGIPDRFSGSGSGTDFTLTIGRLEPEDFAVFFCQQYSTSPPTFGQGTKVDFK records Trimeric HA Binding: RLU of 10000 RLU or higher.
A: satisfied
